Item-by-item account of slope
# assay.target: Alpha-2C adrenergic receptor (Homo sapiens) (UniProt P18825)
# Sequence (P18825 whole entry, looked up): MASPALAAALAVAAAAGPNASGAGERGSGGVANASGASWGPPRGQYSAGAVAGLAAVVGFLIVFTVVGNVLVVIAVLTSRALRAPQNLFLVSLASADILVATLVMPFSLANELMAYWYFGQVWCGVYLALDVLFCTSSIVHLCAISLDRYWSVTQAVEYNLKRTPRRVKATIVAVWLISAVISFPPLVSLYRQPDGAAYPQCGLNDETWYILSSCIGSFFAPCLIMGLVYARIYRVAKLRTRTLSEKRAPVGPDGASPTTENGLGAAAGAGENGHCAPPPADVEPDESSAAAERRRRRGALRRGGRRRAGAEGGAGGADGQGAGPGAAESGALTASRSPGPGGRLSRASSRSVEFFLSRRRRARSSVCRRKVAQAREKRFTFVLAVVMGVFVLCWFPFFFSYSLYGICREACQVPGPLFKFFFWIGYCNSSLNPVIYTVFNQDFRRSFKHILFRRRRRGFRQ
# protocol.summary: compounds altering alpha2C-coupled GIRK flux – cell-based, HEK293 alpha2C/GIRK1/2, thallium flux, primary screen (AID 624);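 note: slope of fluorescence ratio to pre-addition baseline per second over 15 to 24 s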
# condition.info: thallium flux BTC fluorescence, at 10 µM, actives lie on both sides
# output: bare number, no unit

# compound, slope
measured = [
    ("COc1ccc(OC)c(C2C(C(=O)Nc3cccnc3)=C(C)NC3=C2C(=O)CCC3)c1 (stereo unspecified)", 0.00554),
    ("CCCc1cc(C(=O)Nc2sc3c(c2C#N)CCC3)no1", 0.00643),
    ("COc1ccc(C)cc1NCc1cccc(OC)c1OC", 0.00476),
]

Please provide the recorded slope for CCOC(=O)c1nc2sc3c(c2c(=O)[nH]1)CCCC3 , tested on Alpha-2C adrenergic receptor (Homo sapiens) (UniProt P18825). 0.0045

Look up slope with Alpha-2C adrenergic receptor (Homo sapiens) (UniProt P18825) for this compound: Cc1c(NC(=O)C2(c3ccccc3)CCOCC2)c(=O)n(-c2ccccc2)n1C 0.00624

Form entry - test system: Alpha-2C adrenergic receptor (Homo sapiens) (UniProt P18825); read-out: slope; compound: CC1(C)CC(=O)C(C=Nc2ccc3c(c2)OCO3)=C(O)C1 0.00387

Item O=C(Nc1ccc2c(c1)OCO2)c1cc2ncc(Br)cn2n1 with Alpha-2C adrenergic receptor (Homo sapiens) (UniProt P18825) - slope? 0.00236

Please state recorded slope (tested on Alpha-2C adrenergic receptor (Homo sapiens) (UniProt P18825)) of COc1cccc(N2CCN(Cc3cccnc3)CC2)c1 0.00629
